// reported %Inh per item
- System: CAMK1G
- Condition Summary: concentration: 1 μM, replicates: in singlicate; n = 1;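 note: KINOMEscan kinase panel screen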

| Compound | %Inh / % |
| --- | --- |
| CS(=O)(=O)CCNCc1ccc(-c2ccc3ncnc(Nc4ccc(OCc5ccccc5)c(Cl)c4)c3c2)o1.Cl [GW574783] | 27 |
| FC(F)(F)c1ccc(-c2cc(-c3c[nH]nc3-c3ccccn3)ccn2)cc1 [GW599550] | 1 |
| O=C(CCO)NCCn1ccc2ncnc(Nc3ccc(Oc4cccc(C(F)(F)F)c4)c(Cl)c3)c21 | 0 |
| Cl.O=S(=O)(c1cccc(F)c1)c1ccc(Nc2ncnc3cc(Br)sc23)cc1Cl [GSK306886] | 0 |
| O=C(Nc1ccccc1)Nc1ccc(Oc2ccc3nccn3n2)cc1 | 0 |
| CNc1nccc(-c2c(-c3ccc(F)cc3)ncn2CCCN2CCOCC2)n1 [SB-222516] | 0 |
| Nc1nc(-c2ccc3c(N)n[nH]c3c2)cc(N2CCCCC2)n1 [GSK2228768] | 0 |
| COc1cc2c(Nc3cccc(NC(=O)c4ccccc4)c3)ncnc2cc1OCCCN1CCOCC1 [GSK223810] | 0 |
| Cn1cc(-c2ccc3c(c2)CCN3C(=O)Cc2cccc(C(F)(F)F)c2)c2c(N)ncnc21 [GSK2606414] | 0 |
| Cc1ccc(NC(=O)c2cccc(C#N)c2)cc1-c1ccc(C(=O)Nc2ccncc2)cc1 [GSK1398463] | 67 |
| C[C@H]1CC[C@@H](C(=O)Nc2ccccc2)CN1c1cc(-c2ccc3c(N)n[nH]c3c2)nc(N)n1 [GSK2283293] | 0 |
| FC(F)(F)c1ccc(-c2nn3ncccc3c2-c2ccnc(Nc3cccc(C(F)(F)F)c3)n2)cc1 [GW828205] | 0 |
| Fc1ccc(Nc2nccc(-c3c(-c4ccc(Cl)cc4)nn4ncccc34)n2)cc1F [GW829058] | 0 |
| COc1ccc(Nc2nccc(N3CCC(NC(=O)Nc4ccc5c(c4)OCO5)C3)n2)cc1 (centres unmarked) [GSK1379745] | 4 |
| Cc1cccc(-c2nc(Nc3ccc4[nH]nnc4c3)c3ccccc3n2)n1 [GW867587] | 0 |
| CNc1nccc(-c2c(-c3ccc(F)cc3)ncn2C2CCN(C)CC2)n1 [SB-222903] | 0 |
| O=C(NCCCN1CCCC1=O)c1cnc(NCc2cc(Cl)ccc2Cl)nc1NC1CCNCC1 | 0 |

###

- Test system: TAOK1
- Condition Summary: concentration: 1 μM, replicates: in singlicate; n = 1
// reported %Inh per item

| Smiles Text | %Inh |
| --- | --- |
| Clc1cc(Nc2ncnc3cc[nH]c23)ccc1OCc1ccccn1 | 0% |
| O=C(NCCCN1CCCC1=O)c1cnc(NCc2cc(Cl)ccc2Cl)nc1NC1CCNCC1 | 0% |
| CCn1c(-c2ccncc2)nc2cnccc21 | 15% |
| Nc1nccc2scc(-c3ccc4c(c3)CCN4C(=O)Cc3cc(F)ccc3F)c12 | 0% |
| Nc1n[nH]c2nnc(-c3ccccc3)cc12 | 0% |
| Cc1ccc(C)c(NC(=O)NCCNc2ccnc(Nc3ccc(F)cc3)n2)c1 | 0% |
| CSc1nn2c(=O)cc(N3CCOCC3)nc2n1Cc1cccc(Cl)c1Cl | 2% |
| CC(C)N1CCC(n2cnc(-c3ccc(F)cc3)c2-c2ccnc(N)n2)CC1 | 0% |
| Cl.Cn1ccc(-c2cccc(Nc3ccnc4cc(-c5nccs5)ccc34)c2)n1 | 0% |
